- Procedure summary: Toxicity liver stage against HepG2, at 10uM
- Assay type: cell-based
- Design: test concentration 10 uM, cell line HepG2-A16-CD81EGFP
- Condition parameters: human, HepG2-A16-CD81EGFP cells; read-out: INHIBITION
Record form. Attribute: cytotoxicity at 10 µM. Fill in for each entry.
Note: state the figure and append the unit.

Q: Find the measured cytotoxicity at 10 µM of COc1ccc(CNc2n[nH]c(C)n2)cc1 and report it.
A: 1.64%

Q: Find the measured cytotoxicity at 10 µM of O=C(CC1CC1)N[C@@H]1CN(Cc2ccccn2)C[C@@H]2CCCO[C@@H]21 and report it.
A: 6.09%

Q: Find the measured cytotoxicity at 10 µM of Cc1nc(NCc2cccnc2)c2c(n1)c(C)nn2C and report it.
A: -3.42%

Q: Find the measured cytotoxicity at 10 µM of c1ccc(Cn2cc3c(n2)C(CNCC2CCOCC2)OCC3)nc1 (stereo not drawn) and report it.
A: -149%

Q: Find the measured cytotoxicity at 10 µM of Cc1cnc(C(=O)N2C[C@@H]3CN(CC4CCCC4)CCO[C@@H]3C2)cn1 and report it.
A: -2.76%

Q: Find the measured cytotoxicity at 10 µM of N#Cc1ccc(N2CCCN(CC(=O)N3CCC3)CC2)cc1 and report it.
A: -8.38%

Q: Find the measured cytotoxicity at 10 µM of CCc1c(C)nn2c(O)cc(C3CCN(C(=O)c4ccn(C)n4)C3)nc12 (stereo not drawn) and report it.
A: 7.92%

Q: Find the measured cytotoxicity at 10 µM of O=S(=O)(C1CC1)N1CCc2onc(COc3ccccn3)c2C1 and report it.
A: -4.38%

Q: Find the measured cytotoxicity at 10 µM of CCN1C(=O)CCCC12CCCN(C(=O)c1ccoc1C)C2 (stereo not drawn) and report it.
A: -11.8%

Q: Find the measured cytotoxicity at 10 µM of Cc1cc(C[S+]([O-])CC(=O)NCc2cccc(Cl)c2)no1 (stereo not drawn) and report it.
A: -1.56%

Q: Find the measured cytotoxicity at 10 µM of CN(Cc1ccsc1)C(=O)c1nc(N2CCCC2)ncc1Cl and report it.
A: -45.5%

Q: Find the measured cytotoxicity at 10 µM of CC(C)N1Cc2cccc(NCC(=O)N(C)C3CCCCC3)c2C1 and report it.
A: 4.83%

Q: Find the measured cytotoxicity at 10 µM of OC1(Cn2ccc3ncccc32)CCN(Cc2cccnc2)CC1 and report it.
A: 5.72%

Q: Find the measured cytotoxicity at 10 µM of COc1ccccc1C(=O)N1CCCC1c1ncc2c(n1)CCNC2 (stereo not drawn) and report it.
A: -12.3%

Q: Find the measured cytotoxicity at 10 µM of CN(C)C[C@H]1OC[C@@H]2CCN(C(=O)c3cccn3C)C[C@@H]21 and report it.
A: -2.29%

Q: Find the measured cytotoxicity at 10 µM of O=C(CCC(=O)N1CCC(OCc2cccnc2)CC1)c1ccccc1 and report it.
A: -3.33%

Q: Find the measured cytotoxicity at 10 µM of Cc1cc(C)c(Cn2cncn2)cc1CN1CCC(CN)C1 (stereo not drawn) and report it.
A: -11.3%

Q: Find the measured cytotoxicity at 10 µM of CCOCC(=O)N1CCc2c(CN(C)C)nn(C(C)C)c2C1 and report it.
A: -2.63%

Q: Find the measured cytotoxicity at 10 µM of Cc1csc(N2CCCN(CCC(=O)NC(N)=O)CC2)n1 and report it.
A: -24.2%

Q: Find the measured cytotoxicity at 10 µM of COc1ccccc1OCC(=O)N1C[C@@H]2CN(C)CCO[C@@H]2C1 and report it.
A: -2.94%

Q: Find the measured cytotoxicity at 10 µM of COc1cccc(CNCc2ccnc(N3CCOCC3)c2)c1OC and report it.
A: 7.26%

Q: Find the measured cytotoxicity at 10 µM of O=C(c1ncccn1)N1CCC[C@]2(C[C@@H](Oc3ncccc3F)CO2)C1 and report it.
A: -4.28%

Q: Find the measured cytotoxicity at 10 µM of CSCCC(=O)N1CCC(c2nnc(CN(C)CCO)n2C)CC1 and report it.
A: 0.583%
